- target-system: human TLR7 (Homo sapiens, UniProt Q9NYK1)
- Sequence (Q9NYK1 27-1049): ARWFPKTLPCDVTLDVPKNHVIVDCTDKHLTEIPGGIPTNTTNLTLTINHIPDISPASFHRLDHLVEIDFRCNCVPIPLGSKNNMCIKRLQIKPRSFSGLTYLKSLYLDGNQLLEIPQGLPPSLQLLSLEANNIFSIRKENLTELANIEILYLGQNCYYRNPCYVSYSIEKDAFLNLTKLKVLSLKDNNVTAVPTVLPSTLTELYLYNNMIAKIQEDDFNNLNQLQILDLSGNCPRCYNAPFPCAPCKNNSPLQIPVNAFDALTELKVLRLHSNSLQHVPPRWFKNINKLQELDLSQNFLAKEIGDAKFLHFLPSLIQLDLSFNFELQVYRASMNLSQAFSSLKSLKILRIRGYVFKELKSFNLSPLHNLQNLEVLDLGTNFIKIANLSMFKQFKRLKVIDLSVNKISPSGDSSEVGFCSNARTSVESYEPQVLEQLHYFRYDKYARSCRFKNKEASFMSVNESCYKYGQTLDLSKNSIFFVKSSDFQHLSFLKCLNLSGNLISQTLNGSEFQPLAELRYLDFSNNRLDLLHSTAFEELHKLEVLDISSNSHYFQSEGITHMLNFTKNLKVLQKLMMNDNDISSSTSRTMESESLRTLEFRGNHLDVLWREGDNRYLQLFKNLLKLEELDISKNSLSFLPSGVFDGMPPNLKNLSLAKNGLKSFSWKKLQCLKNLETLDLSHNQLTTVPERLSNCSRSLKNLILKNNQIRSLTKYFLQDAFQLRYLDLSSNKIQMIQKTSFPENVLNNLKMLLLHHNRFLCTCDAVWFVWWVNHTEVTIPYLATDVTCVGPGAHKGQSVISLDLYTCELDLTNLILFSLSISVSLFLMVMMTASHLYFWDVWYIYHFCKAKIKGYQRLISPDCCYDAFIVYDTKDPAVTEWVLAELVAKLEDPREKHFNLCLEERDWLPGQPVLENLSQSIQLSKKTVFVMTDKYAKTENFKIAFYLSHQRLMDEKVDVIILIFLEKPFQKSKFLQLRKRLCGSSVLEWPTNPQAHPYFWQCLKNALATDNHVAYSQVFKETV
- protocol-text: TLR7 inhibition reporter assay (HEK-Blue, SEAP)
- measurement-setup: HEK-Blue cells overexpressing human TLR7, gardiquimod 7.5 μM, 22 hour incubation
pIC50: −log10 of the molar value.
Quick reference for pIC50 among some compounds
attribute-measured: pIC50

{"smiles-text": "Cc1cc2nncn2cc1-c1[nH]c2ccc(C3CCNCC3)cc2c1C(C)C", "target-system": "human TLR7 (Homo sapiens, UniProt Q9NYK1)", "experimental-result": 7.25}
{"smiles-text": "Cc1nnc2ccc(-c3[nH]c4ccc(C5CCN(C6COC6)CC5)cc4c3C(C)C)cn12", "target-system": "human TLR7 (Homo sapiens, UniProt Q9NYK1)", "experimental-result": 7.22}
{"smiles-text": "Cc1ncc(CN2CCC(c3ccc4[nH]c(-c5cn6cnnc6c(C)c5C)c(C(C)C)c4c3)CC2)cn1", "target-system": "human TLR7 (Homo sapiens, UniProt Q9NYK1)", "experimental-result": 8.82}
{"smiles-text": "CC(C)c1c(-c2ccc3nncn3c2)[nH]c2ccc(C3CCN(Cc4ncn(C)n4)CC3)cc12", "target-system": "human TLR7 (Homo sapiens, UniProt Q9NYK1)", "experimental-result": 7.26}

====

- target-system: human TLR8 (Homo sapiens, UniProt Q9NR97)
- Sequence (Q9NR97 27-1041): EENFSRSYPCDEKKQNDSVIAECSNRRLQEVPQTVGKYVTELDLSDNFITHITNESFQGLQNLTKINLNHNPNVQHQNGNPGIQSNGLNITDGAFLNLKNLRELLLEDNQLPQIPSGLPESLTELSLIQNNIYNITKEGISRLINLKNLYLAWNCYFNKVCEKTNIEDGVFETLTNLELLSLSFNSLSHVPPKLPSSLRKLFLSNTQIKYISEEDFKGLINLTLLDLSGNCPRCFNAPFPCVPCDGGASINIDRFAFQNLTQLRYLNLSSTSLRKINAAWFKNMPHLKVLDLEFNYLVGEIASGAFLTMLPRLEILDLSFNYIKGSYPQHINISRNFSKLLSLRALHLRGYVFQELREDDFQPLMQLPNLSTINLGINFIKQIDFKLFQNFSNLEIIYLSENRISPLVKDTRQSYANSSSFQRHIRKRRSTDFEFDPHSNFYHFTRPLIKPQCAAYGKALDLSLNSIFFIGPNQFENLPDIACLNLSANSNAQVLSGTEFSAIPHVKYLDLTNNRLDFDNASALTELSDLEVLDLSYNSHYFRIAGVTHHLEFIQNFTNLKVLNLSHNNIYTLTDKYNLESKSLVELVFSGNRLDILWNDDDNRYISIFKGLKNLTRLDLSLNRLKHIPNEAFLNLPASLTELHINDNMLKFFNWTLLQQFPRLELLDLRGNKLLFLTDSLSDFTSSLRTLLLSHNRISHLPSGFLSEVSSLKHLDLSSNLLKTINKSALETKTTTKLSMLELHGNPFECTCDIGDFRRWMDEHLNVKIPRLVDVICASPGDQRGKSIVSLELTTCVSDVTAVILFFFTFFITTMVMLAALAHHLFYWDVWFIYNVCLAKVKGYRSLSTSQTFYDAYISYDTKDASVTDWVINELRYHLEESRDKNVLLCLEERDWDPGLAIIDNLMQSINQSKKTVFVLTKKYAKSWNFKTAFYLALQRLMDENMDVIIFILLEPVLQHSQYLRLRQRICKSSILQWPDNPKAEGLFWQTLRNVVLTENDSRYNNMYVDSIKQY
- protocol-text: TLR8 inhibition reporter assay (HEK-Blue, SEAP)
- measurement-setup: HEK-Blue cells overexpressing human TLR8, R848 15.9 μM, 22 hour incubation
- From the text: TLR7/8/9 Inhibition Reporter Assays HEK-Blue™-cells (Invivogen) overexpressing human TLR7, TLR8 or TLR9 receptors were used for screening inhibitors of these receptors using an inducible SEAP (secreted embryonic alkaline phosphatase) reporter gene under the control of the IFN-β minimal promoter fused to five NF-κB and AP-1-binding sites. […]

{"compound": "Cc1cc2nncn2cc1-c1[nH]c2ccc(C3CCN(C4CCOCC4)CC3)cc2c1C(C)C [Example 68]", "IC50, nM": 139}
{"compound": "Cc1c(-c2[nH]c3ccc(C4CCNCC4)cc3c2C(C)C)cn2cnnc2c1C [Example 8]", "IC50, nM": 29.6}
{"compound": "Cc1cc(-c2[nH]c3ccc(C4CCN(CCCC(F)(F)F)CC4)cc3c2C(C)C)c(C)n2cnnc12 [Example 41]", "IC50, nM": 3.3}
{"compound": "Cc1c(-c2[nH]c3ccc(C4C[C@H]5CC[C@@H](C4)N5)cc3c2C(C)C)cn2cnnc2c1C (single isomer, unassigned) [Example 116]", "IC50, nM": 102}
{"compound": "Cc1c(-c2[nH]c3ccc(C4CCN(CC(C)(C)O)CC4)cc3c2C(C)C)cn2cnnc2c1Cl [Example 61]", "IC50, nM": 4.6}
{"compound": "Cc1cc(-c2[nH]c3ccc(C4CCN(CCS(C)(=O)=O)CC4)cc3c2C(C)C)cn2cnnc12 [Example 35]", "IC50, nM": 3}
{"compound": "Cc1c(-c2[nH]c3ccc(C4C[C@H]5CC[C@@H](C4)N5CC4(C)COC4)cc3c2C(C)C)cn2cnnc2c1C (single isomer, unassigned) [Example 120]", "IC50, nM": 45.9}

====

Quick reference for pIC50 among some molecules
- target-system: human TLR9 (Homo sapiens)
- Sequence (Q9NR96 26-1032): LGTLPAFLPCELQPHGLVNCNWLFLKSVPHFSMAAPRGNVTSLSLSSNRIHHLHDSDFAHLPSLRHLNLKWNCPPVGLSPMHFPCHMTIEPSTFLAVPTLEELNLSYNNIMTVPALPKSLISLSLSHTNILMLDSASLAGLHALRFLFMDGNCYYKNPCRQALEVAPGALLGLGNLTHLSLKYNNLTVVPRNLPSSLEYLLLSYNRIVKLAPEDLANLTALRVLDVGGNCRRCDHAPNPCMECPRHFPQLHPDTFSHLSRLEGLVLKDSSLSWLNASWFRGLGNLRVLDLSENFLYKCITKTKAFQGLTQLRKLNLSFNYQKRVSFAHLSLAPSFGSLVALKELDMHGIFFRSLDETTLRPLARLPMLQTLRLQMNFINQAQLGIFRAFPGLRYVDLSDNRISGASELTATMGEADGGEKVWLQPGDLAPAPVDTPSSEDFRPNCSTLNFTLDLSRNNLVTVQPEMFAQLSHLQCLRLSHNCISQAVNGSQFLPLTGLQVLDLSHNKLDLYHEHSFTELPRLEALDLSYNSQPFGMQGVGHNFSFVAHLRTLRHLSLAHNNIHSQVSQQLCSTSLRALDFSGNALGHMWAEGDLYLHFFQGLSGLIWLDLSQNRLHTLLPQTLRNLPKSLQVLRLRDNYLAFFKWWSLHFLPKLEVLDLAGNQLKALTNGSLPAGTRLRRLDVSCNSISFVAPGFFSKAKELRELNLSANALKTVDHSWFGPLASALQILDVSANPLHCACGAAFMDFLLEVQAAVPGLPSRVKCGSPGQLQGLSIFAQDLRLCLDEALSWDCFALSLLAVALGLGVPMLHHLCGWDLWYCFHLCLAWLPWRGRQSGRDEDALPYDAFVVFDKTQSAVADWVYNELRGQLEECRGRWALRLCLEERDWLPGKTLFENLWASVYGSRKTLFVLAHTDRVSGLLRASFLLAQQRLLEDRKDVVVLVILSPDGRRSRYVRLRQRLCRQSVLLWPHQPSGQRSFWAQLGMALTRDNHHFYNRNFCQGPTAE
- protocol-text: TLR9 inhibition reporter assay (HEK-Blue, SEAP)
- measurement-setup: HEK-Blue cells overexpressing human TLR9, ODN2006 5 nM, 22 hour incubation
pIC50: −log10 of the molar value.
attribute-measured: pIC50

{"molecule": "Cc1cc(-c2[nH]c3ccc(C4CCN(CC(=O)N(C)C)CC4)cc3c2C(C)C)cn2cnnc12 [Example 12]", "experimental-result": 5.72}
{"molecule": "COc1ncc(CN2CCC(c3ccc4[nH]c(-c5cn6cnnc6c(C)c5C)c(C(C)C)c4c3)CC2)cn1 [Example 89]", "experimental-result": 6.11}
{"molecule": "Cc1c(-c2[nH]c3ccc(C4CCN(CC(=O)N(C)C)CC4)cc3c2C(C)C)ccc2nncn12 [Example 25]", "experimental-result": 5.48}
{"molecule": "Cc1nnc2ccc(-c3[nH]c4ccc(C5CCN(CC(=O)N(C)C)CC5)cc4c3C(C)C)cn12 [Example 19]", "experimental-result": 5.78}
{"molecule": "Cc1cc2nncn2cc1-c1[nH]c2ccc(C3CCN(CC(=O)N(C)C)CC3)cc2c1C(C)C [Example 18]", "experimental-result": 6.16}
{"molecule": "CC(C)c1c(-c2ccc3nncn3c2)[nH]c2ccc(C3CCN(CC(=O)N(C)C)CC3)cc12 [Example 14]", "experimental-result": 6.65}
{"molecule": "COc1cc(-c2[nH]c3ccc(C4CCNCC4)cc3c2C(C)C)cn2cnnc12 [Example 11]", "experimental-result": 6.25}
{"molecule": "Cc1c(-c2[nH]c3ccc(C4CCN(CCS(C)(=O)=O)CC4)cc3c2C(C)C)cn2cnnc2c1Cl [Example 46]", "experimental-result": 5.05}

====

- target-system: UniProt Q9NR97
- protocol-text: TLR8 inhibition reporter assay (HEK-Blue, SEAP)
- measurement-setup: HEK-Blue cells overexpressing human TLR8, R848 15.9 μM, 22 hour incubation
- Description: TLR7/8/9 Inhibition Reporter Assays HEK-Blue™-cells (Invivogen) overexpressing human TLR7, TLR8 or TLR9 receptors were used for screening inhibitors of these receptors using an inducible SEAP (secreted embryonic alkaline phosphatase) reporter gene under the control of the IFN-β minimal promoter fused to five NF-κB and AP-1-binding sites. […]
pIC50: −log10 of the molar value.
Quick reference for pIC50 among some compounds
attribute-measured: pIC50

{"compound": "CC(C)c1c(-c2ccc3nncn3c2)[nH]c2ccc(C3CCN(C(=O)CN(C)C)CC3)cc12", "experimental-result": 6.87}
{"compound": "Cc1cc2nncn2cc1-c1[nH]c2ccc(C3CCN(Cc4ncn(C)n4)CC3)cc2c1C(C)C", "experimental-result": 6.39}
{"compound": "COc1ncc(CN2CCC(c3ccc4[nH]c(-c5cn6cnnc6c(C)c5C)c(C(C)C)c4c3)CC2)cn1", "experimental-result": 8.48}
{"compound": "Cc1cc(-c2[nH]c3ccc(C4CCN(C5COC5)CC4)cc3c2C(C)C)cn2cnnc12", "experimental-result": 8.12}
{"compound": "COc1cc(-c2[nH]c3ccc(C4CCN(C5CCC(F)(F)CC5)CC4)cc3c2C(C)C)cn2cnnc12", "experimental-result": 7.69}
{"compound": "Cc1c(-c2[nH]c3ccc(C4CCN(CCCC(F)(F)F)CC4)cc3c2C(C)C)cn2cnnc2c1Cl", "experimental-result": 7.87}
{"compound": "Cc1c(-c2[nH]c3ccc(C4CC(C)N(CCS(C)(=O)=O)C(C)C4)cc3c2C(C)C)cn2cnnc2c1C (single isomer, unassigned) [Example 111]", "experimental-result": 6.95}
{"compound": "COc1cc(-c2[nH]c3ccc(C4CCN(C5CCOC5)CC4)cc3c2C(C)C)cn2cnnc12 (stereo not drawn)", "experimental-result": 7.92}
{"compound": "Cc1c(-c2[nH]c3ccc(C4CC(C)N(C5COC5)C(C)C4)cc3c2C(C)C)cn2cnnc2c1C (stereo not drawn)", "experimental-result": 7.53}
{"compound": "Cc1c(-c2[nH]c3ccc(C4CCN(CCCC(F)(F)F)CC4)cc3c2C(C)C)cn2cnnc2c1C", "experimental-result": 8.19}
{"compound": "Cc1cc2nncn2cc1-c1[nH]c2ccc(C3CCN(C(=O)CN(C)C)CC3)cc2c1C(C)C", "experimental-result": 6.23}
{"compound": "Cc1c(-c2[nH]c3ccc(C4CCN(C5COC5)CC4)cc3c2C(C)C)cn2cnnc2c1C", "experimental-result": 7.66}
{"compound": "COc1cc(-c2[nH]c3ccc(C4CCNCC4)cc3c2C(C)C)cn2cnnc12", "experimental-result": 7.13}
{"compound": "Cc1cc(-c2[nH]c3ccc(C4CCN(C5CCOCC5)CC4)cc3c2C(C)C)cn2c(C)nnc12", "experimental-result": 8.72}
{"compound": "CNC(=O)CN1CCC(c2ccc3[nH]c(-c4ccc5nncn5c4)c(C(C)C)c3c2)CC1", "experimental-result": 7.01}
{"compound": "Cc1cc(-c2[nH]c3ccc(C4CCN(CCCC(F)(F)F)CC4)cc3c2C(C)C)cn2cnnc12", "experimental-result": 8.35}
{"compound": "Cc1c(-c2[nH]c3ccc(C4C[C@H]5CC[C@@H](C4)N5C4COC4)cc3c2C(C)C)cn2cnnc2c1C (single isomer, unassigned) [Example 122]", "experimental-result": 7.00}
{"compound": "Cc1nnc2ccc(-c3[nH]c4ccc(C5CCN(CC(=O)N(C)C)CC5)cc4c3C(C)C)cn12", "experimental-result": 7.53}
{"compound": "Cc1c(-c2[nH]c3ccc(C4CCN(CC5(C)COC5)CC4)cc3c2C(C)C)cn2cnnc2c1C", "experimental-result": 8.70}
{"compound": "Cc1ncc(CN2CCC(c3ccc4[nH]c(-c5cn6cnnc6c(C)c5C)c(C(C)C)c4c3)CC2)cn1", "experimental-result": 8.34}
{"compound": "Cc1c(-c2[nH]c3ccc(C4CCN(C(=O)CN(C)C)CC4)cc3c2C(C)C)ccc2nncn12", "experimental-result": 7.52}
{"compound": "Cc1c(-c2[nH]c3ccc(C4CCN(C5CCOC(C)(C)C5)CC4)cc3c2C(C)C)cn2cnnc2c1C (stereo not drawn)", "experimental-result": 8.17}
{"compound": "Cc1cc(-c2[nH]c3ccc(C4CCN(CC(=O)N(C)C)CC4)cc3c2C(C)C)c(C)n2cnnc12", "experimental-result": 8.22}
{"compound": "Cc1c(-c2[nH]c3ccc(C4CCN(C5CCOCC5)CC4)cc3c2C(C)C)ccc2nncn12", "experimental-result": 7.97}
{"compound": "Cc1c(-c2[nH]c3ccc(C4CCN(C5COC5)CC4)cc3c2C(C)C)cn2cnnc2c1Cl", "experimental-result": 6.82}
{"compound": "Cc1cc(-c2[nH]c3ccc(C4CCN(Cc5ncn(C)n5)CC4)cc3c2C(C)C)cn2c(C)nnc12", "experimental-result": 8.10}
{"compound": "Cc1c(-c2[nH]c3ccc(C4CCN(Cc5cn(C)nn5)CC4)cc3c2C(C)C)cn2cnnc2c1Cl", "experimental-result": 7.67}
{"compound": "COc1cc(-c2[nH]c3ccc(C4CCN(CC5(C)COC5)CC4)cc3c2C(C)C)cn2cnnc12", "experimental-result": 6.61}
{"compound": "Cc1c(-c2[nH]c3ccc(C4CCN(C5CC(C)OC(C)C5)CC4)cc3c2C(C)C)cn2cnnc2c1C (stereo not drawn) [Example 92]", "experimental-result": 7.82}
{"compound": "Cc1cc2nncn2cc1-c1[nH]c2ccc(C3CCN(C4COC4)CC3)cc2c1C(C)C", "experimental-result": 5.99}
